Just for reference, patent US8664407B2 is where these values come from.

# tested-target: bovine spleen cathepsin B (Bos taurus)
# Construct: bovine spleen cathepsin B (Sigma product code C-6286) was prepared by dissolving lyophilized solid; purchased Sigma C-6286; host or cells: bovine spleen (tissue-derived)
# assay-details: Cathepsin B mediated cleavage of single amino acid linkers (RP-HPLC, A340)
# Assay type: biochemical
# stated-conditions: cysteine modified compound, activated cathepsin B, pH 5.0, 37° C.
measure-name: Cathepsin B cleavage

Use the examples below as a reference point.
q: Field request: Cathepsin B cleavage | item: CN1CCN(C(=O)Oc2cc3c(c4ccccc24)[C@H](CCl)CN3C(=O)c2cc3cc(NC(=O)c4ccc(NC(=O)[C@H](CCCCN)NC(=O)CCCCCN5C(=O)C=CC5=O)cc4)ccc3[nH]2)CC1
a: Yes

q: // same read-out, input: CN1CCN(C(=O)Oc2cc3c(c4ccccc24)[C@H](CCl)CN3C(=O)c2cc3cc(NC(=O)c4ccc(NC(=O)[C@H](CCCNC(N)=O)NC(=O)CCCCCN5C(=O)C=CC5=O)cc4)ccc3[nH]2)CC1
a: Yes

q: // same read-out, input: CN1CCN(C(=O)Oc2cc3c(c4ccccc24)[C@H](CCl)CN3C(=O)c2cc3cc(NC(=O)c4ccc(NC(=O)[C@H](CCC(=O)O)NC(=O)CCCCCN5C(=O)C=CC5=O)cc4)ccc3[nH]2)CC1
a: No

q: // same read-out, input: CN1CCN(C(=O)Oc2cc3c(c4ccccc24)[C@H](CCl)CN3C(=O)c2cc3cc(NC(=O)c4ccc(NC(=O)[C@H](CCCNC(N)=O)NCCNC(=O)CCCCCN5C(=O)C=CC5=O)cc4)ccc3[nH]2)CC1
a: No

q: // same read-out, input: CN1CCN(C(=O)Oc2cc3c(c4ccccc24)[C@H](CCl)CN3C(=O)c2cc3cc(NC(=O)c4ccc(NC(=O)[C@H](CO)NC(=O)CCCN5C(=O)C=CC5=O)cc4)ccc3[nH]2)CC1
a: No

---
q: Field request: Cathepsin B cleavage | item: CN1CCN(C(=O)Oc2cc3c(c4ccccc24)[C@H](CCl)CN3C(=O)c2cc3c4c(ccc3[nH]2)N(C(=O)c2ccc(NC(=O)[C@H](CCCNC(N)=O)NC(=O)CCCCCN3C(=O)C=CC3=O)cc2)CC4)CC1
a: No
